TESTED TARGET: PD-L1 on CHO cell line highly expressing PD-L1 (PD-1/PD-L1 blockade bioassay kit, promega J1250) (UniProt Q9NZQ7 19-290, limits assumed)
Sequence (Q9NZQ7 19-290 limits assumed): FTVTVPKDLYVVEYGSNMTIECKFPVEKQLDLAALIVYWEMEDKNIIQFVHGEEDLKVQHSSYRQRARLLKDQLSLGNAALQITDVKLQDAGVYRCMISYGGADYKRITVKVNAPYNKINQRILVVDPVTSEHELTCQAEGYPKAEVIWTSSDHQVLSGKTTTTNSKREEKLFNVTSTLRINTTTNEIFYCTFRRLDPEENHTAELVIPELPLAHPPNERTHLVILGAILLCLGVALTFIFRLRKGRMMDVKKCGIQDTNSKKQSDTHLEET
ASSAY NOTES: cell-based or functional assay
ASSAY ENDPOINT: Average *EC50 [nM], PD-1/PD-L1 blockade bioassay
Please state the number and follow it with the unit.

| BINDER | RESULT |
| --- | --- |
| PDL1-16E12 (LS/4H5) (antibody, V domains shown, also called PD-L1-16E12-4H5) VH: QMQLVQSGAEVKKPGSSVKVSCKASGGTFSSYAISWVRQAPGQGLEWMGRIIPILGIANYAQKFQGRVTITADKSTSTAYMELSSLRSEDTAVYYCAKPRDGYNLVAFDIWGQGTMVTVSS VL: QLVLTQPPSVSGAPGQRVTISCTGSSSNIGAGYDVHWYQQLPGTAPKLLIYGNSNRPSGVPDRFSGSKSGTSASLAITGLQAEDEADYYCQSYDSSLSGGVFGGGTKLTVL | 0.33 nM |
| PDL1-16E12 (LS/4B12) (antibody, V domains shown) VH: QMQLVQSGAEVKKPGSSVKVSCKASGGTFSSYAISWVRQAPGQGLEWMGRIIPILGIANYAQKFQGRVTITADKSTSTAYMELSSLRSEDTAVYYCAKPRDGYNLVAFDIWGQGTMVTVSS VL: QLVLTQPPSVSGAPGQRVTISCTGSSSNIGAGYDVHWYQQLPGTAPKLIIYGDTKRASGVPDRFSGSKSGTSASLAITGLQAEDGADYYCQSYDNSLSAHAVFGTGTKVTVL | 0.46 nM |
| PDL1-16E12 (LS/4A8) (antibody, V domains shown) VH: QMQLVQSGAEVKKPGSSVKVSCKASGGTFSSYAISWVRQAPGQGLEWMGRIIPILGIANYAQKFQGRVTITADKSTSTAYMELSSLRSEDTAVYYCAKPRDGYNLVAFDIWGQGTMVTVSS VL: QLVLTQPPSVSGAPGQRVTISCTGSSSNIGAGYDVHWYQHRPGKAPQLLIYGDNNRPSGIPDRFSGSKSGTSASLAITGLQPEDEADYYCQSFDSRLGVVFGGGTKLTVL | 0.83 nM |
| PDL1-16E12 (LS/4D4) (antibody, V domains shown) VH: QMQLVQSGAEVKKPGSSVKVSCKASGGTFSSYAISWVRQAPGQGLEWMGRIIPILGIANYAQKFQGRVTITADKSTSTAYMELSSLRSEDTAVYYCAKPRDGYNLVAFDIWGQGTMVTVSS VL: QLVLTQPSSVSGAPGQRVTISCTGSSSNLGAPYDVHWYQQLPGTAPKLLIYGNSNRPSGVPDRFSVSKSGTSASLAITGLQAEDEADYYCQSYDSSLSSSVFGGGTKLTVL | 0.57 nM |

Answer with the recorded Average *EC50 [nM], PD-1/PD-L1 blockade bioassay of PDL1-16E12 (LS/4A11) (antibody, V domains shown, also called PD-L1-16E12-4A11) VH: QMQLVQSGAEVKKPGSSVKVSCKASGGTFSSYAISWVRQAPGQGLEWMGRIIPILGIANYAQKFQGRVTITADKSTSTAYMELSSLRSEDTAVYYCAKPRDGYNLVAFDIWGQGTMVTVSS VL: QLVLTQPPSVSGAPGQRVIISCTGSSSNIGAGYDVHWYQQVPGTAPKLLIYGNNHRPSGVPDRFSGSKSGTSASLAITGLQAEDETDYYCQSYDNRLSGSLFGGGTKLTVL only.
0.34 nM
